Value source: paper PMC10060354

Assay: In vivo bioavailability / PK after 1 mg/kg IV or 10 mg/kg PO
Design: species or system Male ICR mice
Conditions: male, ICR, mouse, plasma, iv, 1 mg/kg, mg/kg IV, time 4 h, mouse#1-3; read-out: in vivo PK raw, level per mouse
propertyName: concentration at 4 h (nM)
Lab book: enter the figure in nM, no units written.

Task: Need concentration at 4 h of Cc1[nH]nc(-c2ccc(O)c(C)c2O)c1-c1nc2ccccc2s1 [Compound E12] , thanks.
Result: 0

----------
Assay: In vivo bioavailability / PK after 1 mg/kg IV or 10 mg/kg PO
Parameters: species or system Male ICR mice
Settings: male, ICR, mouse; mice; 10 mg/kg PO; plasma; read-out: Cmax (oral bioavailability) after PO administration
propertyName: Cmax (ng/mL)
Lab book: enter the figure in ng/mL, no units written.

compound: Cc1[nH]nc(-c2ccc(O)c(C)c2O)c1-c1nc2ccccc2s1 [Compound E12]
Cmax (ng/mL): 13

Turning now to a further compound:
Task: Need Cmax of O=[N+]([O-])c1c(Cl)cc(O)c2c1C1C=CCC1C(c1ccc(Cl)cc1)N2 (centres unmarked) [Compound 7] , thanks.
Result: 1400
